Target: T1, SARS-CoV-2 spike receptor binding domain, native (SARS-CoV-2, UniProt P0DTC2 330-532)
T1 construct: range 330-532
Assay: BLI, RBD on AR2G biosensor, mAb as analyte
endpoint_name: Kd (nM)
Return type: number; implicit unit nM.

Use these answered entries as a reference point.
antibody 165 (antibody, V domains shown, also called mAb 165) VH: QVQLVQSGPEVKKPGTSVKVSCKASGFTFTSSAVQWVRQARGQRLEWIGWIVVGSGNTNYAQKFQESVTITRDMSTSTAYMELSSLRSEDTAVYYCAAPHCIGGSCHDAFDIWGQGTMVTVSS VL: DIVMTQSPGTLSLSPGERATLSCRASQSVRSSYLAWYQQKPGQAPRLLIYGASRRGTGIPDRFSGSGSGTDFTLTISRLEPEDFAVYYCQQYGSSPWTFGQGTKVEIK: 2.15
antibody 58 (antibody, V domains shown, also called mAb 58) VH: QVQLVESGGGLVQPGRSLRLSCAASGFTFDDYAMHWVRQPPGKGLEWVSGVSWNSGTIGYADSVKGRFIISRDNAKNSLYLQMNSLKAEDTALYYCAREVGGTFGVLISREGGLDYWGQGTLVTVSS VL: SYELTQPPSVSVAPGQTARITCGGNTIGSKSVHWYQQRPGQAPVLVVYDDSDRPSGIPERFSGSNSGNTATLTISRVEAGDEADYYCQVWDSSSDRVVFGGGTKLTVL: 1.46

*Q* Returns the measured Kd for the input binder. Input: antibody 278 (antibody, V domains shown, also called mAb 278) VH: QVQLVQSGAEVKKPGASVKVSCKASGYIFIRYGISWVRQAPGQGLEWMGWISANNGYTNYAQKLQGRVTMTTDTSTSTAYMELRSLRSDDTAVYYCARDGGILTGYLDYFDHWGQGTLVTVSS VL: DIQMTQSPSSLSASVGDRLTITCRASQSIASYLNWYQQKPGKAPKLLIYAASSLQSGVPSRFSGSGSGTDFTLTISSLQPEDFATYHCQQSYSTLGITFGPGTKVDIK
*A* 4.16
